The values you see were collected from ChEMBL document CHEMBL5291721.

For reference, AC50 measured on UniProtKB P30556:

// query AC50 value for entry OCC(O)COc1ccc(Cl)cc1 (centres undefined)
// result > 10 µM

// query // same read-out, input: C[C@]12CCC(=O)C=C1C=C[C@@H]1[C@@H]2CC[C@@]2(C)[C@H]1CC[C@@]21CCC(=O)O1 [CANRENONE]
// result > 30 µM

// query // same read-out, input: CCN(CC)Cc1nccn1-c1ccc([N+](=O)[O-])cc1C(=O)c1ccccc1Cl [NIZOFENONE]
// result > 30 µM

// query // same read-out, input: C[C@@H](O)[C@H]1C(=O)N2C(C(=O)O)=C(SCCN=CN)C[C@H]12 [IMIPENEM ANHYDROUS]
// result > 300 µM

// query // same read-out, input: COC(=O)CCc1ccc(OCC(O)CNC(C)C)cc1 (centres undefined) [ESMOLOL]
// result > 30 µM

// query // same read-out, input: CCc1ccc(C(=O)C(C)CN2CCCCC2)cc1 (centres undefined) [EPERISONE]
// result > 30 µM

// query // same read-out, input: NCCCNCCSP(=O)(O)O [AMIFOSTINE]
// result > 30 µM

// query // same read-out, input: O=C1CN=C(c2ccccc2Cl)c2cc([N+](=O)[O-])ccc2N1 [CLONAZEPAM]
// result > 30 µM

// query // same read-out, input: CC(=O)[C@@]1(O)CC[C@H]2[C@@H]3C[C@H](C)C4=CC(=O)C=C[C@]4(C)[C@@]3(F)[C@@H](O)C[C@@]21C [FLUOROMETHOLONE]
// result > 10 µM

====

# target: Neuropeptide Y receptor type 1 (Homo sapiens); note: assay procedure not described here
# Sequence (P25929 whole entry): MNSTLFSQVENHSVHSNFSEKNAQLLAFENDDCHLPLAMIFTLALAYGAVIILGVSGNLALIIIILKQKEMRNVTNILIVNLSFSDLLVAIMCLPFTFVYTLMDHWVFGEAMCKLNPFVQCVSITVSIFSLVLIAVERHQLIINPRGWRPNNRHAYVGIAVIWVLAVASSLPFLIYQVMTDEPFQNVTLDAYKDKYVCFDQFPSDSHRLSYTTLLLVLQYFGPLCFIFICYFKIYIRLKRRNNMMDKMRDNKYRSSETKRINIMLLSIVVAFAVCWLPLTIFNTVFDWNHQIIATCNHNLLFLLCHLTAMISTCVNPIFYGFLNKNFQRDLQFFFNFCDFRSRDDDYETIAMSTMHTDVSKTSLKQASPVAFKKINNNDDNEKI
assay metric: AC50

// query AC50 value for entry `CC(=O)Oc1ccccc1C(=O)O`
// result > 30 µM

// query // same read-out, input: `O=C(O)CCCC[C@@H]1SC[C@@H]2NC(=O)N[C@@H]21`
// result > 10 µM

// query // same read-out, input: CN(C)CCOC(c1ccc(Cl)cc1)c1ccccn1 (stereo not drawn)
// result > 30 µM

// query // same read-out, input: `CN(C)CCN(Cc1ccccc1)c1ccccn1`
// result > 10 µM

// query // same read-out, input: `CO/N=C(\C(=O)N[C@@H]1C(=O)N2C(C(=O)[O-])=C(C[n+]3ccc(N)n3CCO)CS[C@H]12)c1csc(N)n1`
// result > 30 µM

// query // same read-out, input: CN1C2CCCC1CC(NC(=O)c1nn(C)c3ccccc13)C2 (stereo not drawn)
// result > 30 µM

// query // same read-out, input: CC(=O)OCC(=O)[C@@]1(O)CC[C@H]2[C@@H]3CCC4=CC(=O)CC[C@]4(C)[C@@]3(F)[C@@H](O)C[C@@]21C [FLUDROCORTISONE ACETATE]
// result > 30 µM

// query // same read-out, input: O=C(c1ccccc1)c1ccc2n1CCC2C(=O)O (stereo not drawn)
// result > 10 µM

// query // same read-out, input: CC(=O)N1CCN(c2ccc(OCC3COC(Cn4ccnc4)(c4ccc(Cl)cc4Cl)O3)cc2)CC1 (stereo not drawn)
// result > 10 µM

// query // same read-out, input: CCC(=O)O[C@H](CC(=O)O)C[N+](C)(C)C [LEVOCARNITINE PROPIONATE]
// result > 30 µM

// query // same read-out, input: `CC(=O)OCC1=C(C(=O)O)N2C(=O)[C@@H](NC(=O)CSc3ccncc3)[C@H]2SC1`
// result > 10 µM

// query // same read-out, input: CCOC(=O)O[C@]1(C(=O)COC(=O)CC)CC[C@H]2[C@@H]3CCC4=CC(=O)C=C[C@]4(C)[C@H]3[C@@H](O)C[C@@]21C [PREDNICARBATE]
// result > 10 µM

// query // same read-out, input: `CCC1(CC)C(=O)NC(=O)N(C)C1=O`
// result > 10 µM
